- Assay text: in vivo
- Recorded conditions: beagle, dog, po, 10 mg/kg
Endpoint: Tmax at 72 h (h)

INSERT INTO measurements (mol_smiles, endpoint, val) VALUES
  ('COc1cc(OC)c(F)c(COc2cnc(Nc3cnn(CCO)c3)nc2)c1F', 'Tmax at 72 h', 3);

###

- Assay text: in vivo
- Recorded conditions: beagle, dog, po, 1 mg/kg
Endpoint: Cmax at 72 h (ng/mL)

INSERT INTO assay_data (compound, endpoint, units_text, val) VALUES
  ('COc1cc(OC)c(F)c(COc2cnc(Nc3cnn(CCO)c3)nc2)c1F [ASP-5878]', 'Cmax at 72 h', 'ng/mL', 769);

###

- Assay text: in vivo
- Recorded conditions: Sprague-Dawley, rat, po, 0.3 mg/kg
Endpoint: bioavailability at 24 h (%)

INSERT INTO assay_data (mol_smiles, units_text, val) VALUES
  ('COc1cc(OC)c(F)c(COc2cnc(Nc3cnn(CCO)c3)nc2)c1F', '%', 76.1);

###

- Assay text: in vivo
- Recorded conditions: beagle, dog, po, 100 mg/kg
Endpoint: AUC(0-t) at 72 h (µg·h/mL)

INSERT INTO measurements (compound, val) VALUES
  ('COc1cc(OC)c(F)c(COc2cnc(Nc3cnn(CCO)c3)nc2)c1F [ASP-5878]', 111);

###

- Recorded conditions: dog, in vivo, po, 100 mg/kg, 72 h
Endpoint: Cmax (ng/mL)

INSERT INTO measurements (mol_smiles, val) VALUES
  ('COc1cc(OC)c(F)c(COc2cnc(Nc3cnn(CCO)c3)nc2)c1F', 9020);

###

- Assay text: Lipophilicity, logD of the compound in 1-octanol and phosphate buffer at pH 7.4 by LC-MS analysis
- Recorded conditions: octanol/water
Endpoint: logD

INSERT INTO results (compound, val) VALUES
  ('COc1cc(OC)c(F)c(COc2cnc(Nc3cnn(CCO)c3)nc2)c1F [ASP-5878]', 2.3);

###

- Assay text: Half-life in Sprague-Dawley rat at 0.3 mg/kg, iv measured up to 24 hrs by LC-MS/MS analysis
- Recorded conditions: in vivo
Endpoint: half-life at 24 h (h)

INSERT INTO assay_data (mol_smiles, endpoint, units_text, val) VALUES
  ('COc1cc(OC)c(F)c(COc2cnc(Nc3cnn(CCO)c3)nc2)c1F', 'half-life at 24 h', 'h', 1.7);

###

- Study system: hERG (Homo sapiens)
- Sequence (Q12809 whole entry): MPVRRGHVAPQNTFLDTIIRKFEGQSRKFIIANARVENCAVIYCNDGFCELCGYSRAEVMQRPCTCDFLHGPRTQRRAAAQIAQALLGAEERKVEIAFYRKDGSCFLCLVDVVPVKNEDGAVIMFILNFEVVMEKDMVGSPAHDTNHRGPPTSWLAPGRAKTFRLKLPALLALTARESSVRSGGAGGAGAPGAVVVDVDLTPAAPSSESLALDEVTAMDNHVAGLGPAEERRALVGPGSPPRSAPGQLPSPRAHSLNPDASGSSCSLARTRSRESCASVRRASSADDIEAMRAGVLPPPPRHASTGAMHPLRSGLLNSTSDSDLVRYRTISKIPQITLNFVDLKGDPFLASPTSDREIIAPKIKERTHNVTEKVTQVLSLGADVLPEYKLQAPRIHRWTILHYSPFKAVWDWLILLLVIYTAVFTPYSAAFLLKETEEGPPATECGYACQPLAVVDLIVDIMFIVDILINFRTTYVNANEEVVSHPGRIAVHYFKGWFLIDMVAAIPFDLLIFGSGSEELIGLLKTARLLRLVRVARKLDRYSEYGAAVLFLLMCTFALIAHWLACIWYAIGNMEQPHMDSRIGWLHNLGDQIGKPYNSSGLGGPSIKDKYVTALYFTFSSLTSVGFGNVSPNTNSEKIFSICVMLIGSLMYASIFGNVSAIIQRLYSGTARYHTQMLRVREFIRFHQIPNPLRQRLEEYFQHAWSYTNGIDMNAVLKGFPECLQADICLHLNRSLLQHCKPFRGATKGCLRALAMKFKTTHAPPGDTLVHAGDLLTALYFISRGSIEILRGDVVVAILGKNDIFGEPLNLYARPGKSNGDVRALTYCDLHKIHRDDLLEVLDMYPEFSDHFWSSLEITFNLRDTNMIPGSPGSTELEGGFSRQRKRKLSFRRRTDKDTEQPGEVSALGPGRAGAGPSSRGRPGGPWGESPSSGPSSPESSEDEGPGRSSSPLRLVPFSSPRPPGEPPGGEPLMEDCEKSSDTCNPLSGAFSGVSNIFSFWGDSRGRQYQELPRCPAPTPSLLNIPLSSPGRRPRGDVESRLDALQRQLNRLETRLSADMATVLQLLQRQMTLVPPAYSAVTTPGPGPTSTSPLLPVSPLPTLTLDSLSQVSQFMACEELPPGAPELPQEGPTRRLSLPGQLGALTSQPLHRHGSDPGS
- Assay text: Inhibition of hERG in HEK293 cells assessed as mean compensated suppression rate at 3 uM incubated for 13 mins by whole cell patch clamp assay relative to control
- Recorded conditions: HEK293 cells expressing hERG
Endpoint: inhibition at 13 min, 3 µM

INSERT INTO measurements (mol_smiles, study_system, val) VALUES
  ('COc1cc(OC)c(F)c(COc2cnc(Nc3cnn(CCO)c3)nc2)c1F', 'hERG (Homo sapiens)', '9.1%');

###

IC50 values for the molecules below.
- Study system: Voltage-gated inwardly rectifying potassium channel KCNH2 (Homo sapiens, UniProt Q12809)
- Sequence (Q12809 whole entry): as above
- Assay text: Inhibition of hERG channel expressed in CHO cells at -80 mV holding potential by Qpatch clamp method
Endpoint: IC50

INSERT INTO results (mol_smiles, study_system, endpoint, val) VALUES
  ('COc1cc(Nc2ncc(CCc3c(F)c(OC)cc(OC)c3F)cn2)ccc1N1CCC(N2CCN(C)CC2)CC1', 'Voltage-gated inwardly rectifying potassium channel KCNH2 (Homo sapiens, UniProt Q12809)', 'IC50', '10 µM'),
  ('COc1cc(Nc2ncc(OCc3c(F)c(OC)cc(OC)c3F)cn2)ccc1N1CCC(N2CCN(C)CC2)CC1', 'Voltage-gated inwardly rectifying potassium channel KCNH2 (Homo sapiens, UniProt Q12809)', 'IC50', '> 3 µM'),
  ('COc1cc(Nc2ncc(OCc3c(F)c(OC)cc(OC)c3F)cn2)ccc1N1CCN(C)CC1', 'Voltage-gated inwardly rectifying potassium channel KCNH2 (Homo sapiens, UniProt Q12809)', 'IC50', '> 3 µM'),
  ('COc1cc(OC)c(F)c(COc2cnc(Nc3cnn(CCN4CCNCC4)c3)nc2)c1F.Cl.Cl.Cl', 'Voltage-gated inwardly rectifying potassium channel KCNH2 (Homo sapiens, UniProt Q12809)', 'IC50', '89 µM'),
  ('COc1cc(OC)c(F)c(COc2cnc(Nc3cnn(CCNC4CCN(C)CC4)c3)nc2)c1F.Cl.Cl.Cl', 'Voltage-gated inwardly rectifying potassium channel KCNH2 (Homo sapiens, UniProt Q12809)', 'IC50', '83 µM'),
  ('COc1cc(Nc2ncc(CCc3c(F)c(OC)cc(OC)c3F)cn2)ccc1N1CCC(N(C)C2CCN(C)CC2)CC1.Cl.Cl.Cl.Cl', 'Voltage-gated inwardly rectifying potassium channel KCNH2 (Homo sapiens, UniProt Q12809)', 'IC50', '> 1 µM'),
  ('CCOc1cc(Nc2ncc(OCc3c(F)c(OC)cc(OC)c3F)cn2)ccc1N1CCC(N2CCN(C)CC2)CC1', 'Voltage-gated inwardly rectifying potassium channel KCNH2 (Homo sapiens, UniProt Q12809)', 'IC50', '> 3 µM'),
  ('COc1cc(OC)c(F)c(COc2cnc(Nc3cnn(CCO)c3)nc2)c1F', 'Voltage-gated inwardly rectifying potassium channel KCNH2 (Homo sapiens, UniProt Q12809)', 'IC50', '> 10 µM');

###

- Assay text: in vivo
- Recorded conditions: Sprague-Dawley, rat, iv, 0.3 mg/kg
Endpoint: clearance at 24 h (mL/min/kg)

INSERT INTO measurements (mol_smiles, endpoint, units_text, val) VALUES
  ('COc1cc(OC)c(F)c(COc2cnc(Nc3cnn(CCO)c3)nc2)c1F', 'clearance at 24 h', 'mL/min/kg', 5.82);

###

- Assay text: AUCinfinity in Sprague-Dawley rat at 0.3 mg/kg, po measured upto 24 hrs by LC-MS/MS analysis
- Recorded conditions: in vivo
Endpoint: AUC(0-inf) at 24 h (ng·h/mL)

INSERT INTO measurements (mol_smiles, val) VALUES
  ('COc1cc(OC)c(F)c(COc2cnc(Nc3cnn(CCO)c3)nc2)c1F', 657);

###

- Recorded conditions: dog, in vivo, po, 10 mg/kg, 72 h
Endpoint: Cmax (ng/mL)

INSERT INTO measurements (mol_smiles, val) VALUES
  ('COc1cc(OC)c(F)c(COc2cnc(Nc3cnn(CCO)c3)nc2)c1F', 3540);

###

- Assay text: Ratio of drug concentration in brain to plasma (Kp,brain) in Sprague-Dawley rat at 1 mg/kg, po measured after 24 hrs
Endpoint: Kp at 24 h

INSERT INTO results (mol_smiles, val) VALUES
  ('COc1cc(OC)c(F)c(COc2cnc(Nc3cnn(CCO)c3)n[14cH]2)c1F', 0.69);

###

- Assay text: in vivo
- Recorded conditions: beagle, dog, po, 1 mg/kg
Endpoint: AUC(0-t) at 72 h (ng·h/mL)

INSERT INTO measurements (compound, val) VALUES
  ('COc1cc(OC)c(F)c(COc2cnc(Nc3cnn(CCO)c3)nc2)c1F [ASP-5878]', 5710);

###

- Assay text: Plasma concentration in ICR mouse at 30 mg/kg, po measured after 6 hrs of administration by LC-MS/MS analysis
- Type: ADME, organism-based
concentration at 6 h values for the molecules below.
Endpoint: concentration at 6 h (nM)

INSERT INTO measurements (mol_smiles, endpoint, val) VALUES
  ('COc1cc(OC)c(F)c(COc2cnc(Nc3cnn(CCO)c3)nc2)c1F', 'concentration at 6 h', 1570),
  ('COc1cc(OC)c(F)c(COc2cnc(Nc3cnn(CCN4CCNCC4)c3)nc2)c1F.Cl.Cl.Cl', 'concentration at 6 h', 305),
  ('COc1cc(Nc2ncc(OCc3c(F)c(OC)cc(OC)c3F)cn2)ccc1N1CCC(N2CCN(C)CC2)CC1', 'concentration at 6 h', 2790),
  ('COc1cc(OC)c(F)c(COc2cnc(Nc3cnn(CCNC4CCN(C)CC4)c3)nc2)c1F.Cl.Cl.Cl', 'concentration at 6 h', 50.2);

###

- Assay text: Intrinsic clearance in human liver microsomes
- Recorded conditions: liver microsomes
Endpoint: CLint scaled

INSERT INTO results (mol_smiles, val) VALUES
  ('COc1cc(OC)c(F)c(COc2cnc(Nc3cnn(CCNC4CCN(C)CC4)c3)nc2)c1F.Cl.Cl.Cl', '< 23 mL/min/kg'),
  ('COc1cc(OC)c(F)c(COc2cnc(Nc3cnn(CCN4CCNCC4)c3)nc2)c1F.Cl.Cl.Cl', '< 23 mL/min/kg'),
  ('CCOc1cc(Nc2ncc(OCc3c(F)c(OC)cc(OC)c3F)cn2)ccc1N1CCC(N2CCN(C)CC2)CC1', '< 23 mL/min/kg');
